Each recorded value in this set is attributed to patent US20220064276A1.

target: T1, human LTBP3-proTGFβ1 complex (human, UniProt Q9NS15 44-1303; P01137 30-390, limits assumed)
T1 construct: Exemplary entries; also called Hu LTBP3-proTGFβ1; huLTBP3 proTGFb1
T1 sequence (Q9NS15 44-1303 limits assumed, chain 1 of 2): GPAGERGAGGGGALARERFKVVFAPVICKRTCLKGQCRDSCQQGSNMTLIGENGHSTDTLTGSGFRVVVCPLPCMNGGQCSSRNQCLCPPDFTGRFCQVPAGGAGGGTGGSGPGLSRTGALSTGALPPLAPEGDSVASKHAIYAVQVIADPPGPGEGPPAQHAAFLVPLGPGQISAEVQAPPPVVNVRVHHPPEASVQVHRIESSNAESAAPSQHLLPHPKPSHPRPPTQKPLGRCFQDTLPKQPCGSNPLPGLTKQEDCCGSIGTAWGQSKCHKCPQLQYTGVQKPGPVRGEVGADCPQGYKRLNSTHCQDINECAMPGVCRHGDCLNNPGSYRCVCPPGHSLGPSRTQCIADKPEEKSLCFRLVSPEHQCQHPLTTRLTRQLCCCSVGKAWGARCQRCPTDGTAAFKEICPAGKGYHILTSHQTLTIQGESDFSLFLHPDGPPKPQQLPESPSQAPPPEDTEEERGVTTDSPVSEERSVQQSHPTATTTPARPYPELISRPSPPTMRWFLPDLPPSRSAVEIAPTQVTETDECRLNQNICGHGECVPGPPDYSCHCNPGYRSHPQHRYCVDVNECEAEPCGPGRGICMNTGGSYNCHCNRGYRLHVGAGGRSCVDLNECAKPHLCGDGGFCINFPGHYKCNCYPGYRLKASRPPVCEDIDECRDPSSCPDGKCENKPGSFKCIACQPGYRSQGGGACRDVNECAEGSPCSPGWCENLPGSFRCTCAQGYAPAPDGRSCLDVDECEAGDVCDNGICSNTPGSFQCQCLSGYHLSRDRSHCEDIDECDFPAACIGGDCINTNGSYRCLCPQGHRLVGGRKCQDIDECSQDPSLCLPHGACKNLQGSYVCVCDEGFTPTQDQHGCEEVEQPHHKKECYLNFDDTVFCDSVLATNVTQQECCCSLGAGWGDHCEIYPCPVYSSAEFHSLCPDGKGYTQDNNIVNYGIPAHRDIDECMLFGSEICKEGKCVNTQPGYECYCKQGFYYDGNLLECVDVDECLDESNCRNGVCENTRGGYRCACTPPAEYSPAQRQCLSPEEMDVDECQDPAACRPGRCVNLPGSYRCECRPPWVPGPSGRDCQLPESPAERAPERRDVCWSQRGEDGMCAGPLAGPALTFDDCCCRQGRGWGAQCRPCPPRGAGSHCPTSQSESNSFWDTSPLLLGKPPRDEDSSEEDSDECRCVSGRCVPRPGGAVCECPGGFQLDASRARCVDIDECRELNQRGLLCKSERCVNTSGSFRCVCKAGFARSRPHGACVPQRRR
T1 sequence (P01137 30-390 limits assumed, chain 2 of 2): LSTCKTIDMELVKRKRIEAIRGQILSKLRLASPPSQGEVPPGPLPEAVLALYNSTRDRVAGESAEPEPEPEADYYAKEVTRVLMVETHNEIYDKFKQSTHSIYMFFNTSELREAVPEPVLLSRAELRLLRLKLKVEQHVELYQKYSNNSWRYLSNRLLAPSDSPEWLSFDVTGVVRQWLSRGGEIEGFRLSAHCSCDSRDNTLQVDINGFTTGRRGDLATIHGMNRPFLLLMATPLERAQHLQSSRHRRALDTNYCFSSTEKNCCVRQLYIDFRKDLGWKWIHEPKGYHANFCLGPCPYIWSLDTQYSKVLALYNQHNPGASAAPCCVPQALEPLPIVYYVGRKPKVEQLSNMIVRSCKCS
assay_text: Octet BLI, IgG captured
quantity_name: kon (M⁻¹ s⁻¹)
Reply with just the number (in M⁻¹ s⁻¹).

Qu. Dear colleague, I am looking for the recorded kon of the following binder: SR-AB41 (antibody, IgG1, V domains shown, Cycle 3, lineage SR-AB23) VH: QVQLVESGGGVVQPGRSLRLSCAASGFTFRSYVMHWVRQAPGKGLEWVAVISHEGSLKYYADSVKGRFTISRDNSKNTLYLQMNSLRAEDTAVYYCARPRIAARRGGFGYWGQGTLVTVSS VL: NFMLTQPHSVSESPGKTVTISCTRSSGNIDNNYVQWYQQRPGSSPTTVIYEDNQRPSGVPDRFSGSIDSSSNSASLTISGLKTEDEADYYCQSYDYDNQAVVFGGGTKLTVL
Ans. 255000

Qu. Dear colleague, I am looking for the recorded kon of the following binder: SR-AB39 (antibody, IgG1, V domains shown, Cycle 3, lineage SR-AB22) VH: QVQLVESGGGVVQPGRSLRLSCAASGFTFRSYVMHWVRQAPGKGLEWVAVISHEGSLKYYADSVKGRFTISRDNSKNTLYLQMNSLRAEDTAVYYCAVPRIAARRGGFGYWGQGTLVTVSS VL: NFMLTQPHSVSESPGKTVTISCTRSSGLIDDNYVQWYQQRPGSSPTTVIYEDAQRPSGVPDRFSGSIDSSSNSASLTISGLKTEDEADYYCQSYDHDEQGVVFGGGTKLTVL
Ans. 441000

Qu. Dear colleague, I am looking for the recorded kon of the following binder: SR-AB38 (antibody, IgG1, V domains shown, Cycle 3, lineage SR-AB22) VH: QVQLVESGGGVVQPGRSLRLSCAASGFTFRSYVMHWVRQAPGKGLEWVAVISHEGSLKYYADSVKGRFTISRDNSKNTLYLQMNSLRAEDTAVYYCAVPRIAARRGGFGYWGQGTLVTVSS VL: NFMLTQPHSVSESPGKTVTISCTRSSGSIDNNYVQWYQQRPGSSPTTVIYEDFIRPSGVPDRFSGSIDSSSNSASLTISGLKTEDEADYYCQSYDDDLQGVVFGGGTKLTVL
Ans. 502000
